B1: LINE1-full (parent)
chain: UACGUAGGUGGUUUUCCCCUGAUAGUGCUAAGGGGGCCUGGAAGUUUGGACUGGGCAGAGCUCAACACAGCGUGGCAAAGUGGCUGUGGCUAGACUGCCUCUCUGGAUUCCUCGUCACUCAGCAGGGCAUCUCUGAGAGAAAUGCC

variants of: B1; test: self-cleavage, relative activity (ratio to wild type); higher = more cleavage; in vitro, sequencing; the parent is a self-cleaving ribozyme
Property: self-cleavage; scope: individual variants
API note: the answer field is a bare number with no unit suffix.

Reference set (3 entries):
mutantDesignation	observationType	recordedValue
U39C A124U	self-cleavage	1.26
G125U G144U	self-cleavage	1.72
A67G A69C	self-cleavage	0.37

Please report the recorded self-cleavage for A6G G144A .
1.21

Name the reported self-cleavage value associated with the variant A117U A129C
1.23

What value of measured self-cleavage is listed for U96G U134C ?
0.23

Recorded self-cleavage of G4C U96A , please.
0.12

Can you share its self-cleavage? I mean this variant: G33A U115C
1.48

Given the entry A79C A138U , report its measured self-cleavage.
2.19

Recorded self-cleavage for A6U C95A , please?
0.07

Report self-cleavage for G11C A67G please.
0.46
